System: SGC7901 cells
Test: MTT assay SGC7901
Format: cell-based
Conditions: Homo sapiens, SGC-7901, 24h of treatment, mean ± SD

{"Molecule": "Nc1nc2[nH]cc(CCc3ccc(C(=O)N[C@@H](CCC(=O)O)C(=O)O)cc3)c2c(=O)[nH]1 [PTX, pemetrexed, reference compound]", "IC50": "6.96 µM"}
{"Molecule": "Cc1ccccc1NC(=O)Nc1ccccc1NS(=O)(=O)c1c[nH]c(=O)[nH]c1=O [Compound L14g]", "IC50": "5.4 µM"}
{"Molecule": "O=C(Nc1ccc(Cl)cc1)Nc1ccc(NS(=O)(=O)c2c[nH]c(=O)[nH]c2=O)cc1 [Compound L13f]", "IC50": "3.98 µM"}
{"Molecule": "O=C(Nc1ccccc1Cl)Nc1ccccc1NS(=O)(=O)c1c[nH]c(=O)[nH]c1=O [Compound L14d]", "IC50": "5.22 µM"}
{"Molecule": "O=C(Nc1ccc(NS(=O)(=O)c2c[nH]c(=O)[nH]c2=O)cc1)Nc1ccccc1Cl [Compound L13d]", "IC50": "5.3 µM"}
{"Molecule": "CNC(=O)c1cc(Oc2ccc(NC(=O)Nc3ccc(Cl)c(C(F)(F)F)c3)cc2)ccn1 [Sorafenib, reference compound]", "IC50": "> 10 µM"}

----------
The entries below are paired with their reported melting point.

{"Compound": "O=C(Nc1cccc(Cl)c1)Nc1cccc(NS(=O)(=O)c2c[nH]c(=O)[nH]c2=O)c1 [Compound L15e]", "melting point": "162 to 166 °C"}
{"Compound": "Cc1ccc(NC(=O)Nc2ccc(NS(=O)(=O)c3c[nH]c(=O)[nH]c3=O)cc2)cc1 [Compound L13i]", "melting point": "181 to 183 °C"}
{"Compound": "O=C(Nc1cccc(NS(=O)(=O)c2c[nH]c(=O)[nH]c2=O)c1)Nc1ccccc1Cl [Compound L15d]", "melting point": "159 to 162 °C"}
{"Compound": "Cc1ccccc1NC(=O)Nc1ccc(NS(=O)(=O)c2c[nH]c(=O)[nH]c2=O)cc1 [Compound L13g]", "melting point": "169 to 173 °C"}

----------
The entries below are paired with their reported pIC50.
Target: UniProt P15056
Sequence (P15056 whole entry): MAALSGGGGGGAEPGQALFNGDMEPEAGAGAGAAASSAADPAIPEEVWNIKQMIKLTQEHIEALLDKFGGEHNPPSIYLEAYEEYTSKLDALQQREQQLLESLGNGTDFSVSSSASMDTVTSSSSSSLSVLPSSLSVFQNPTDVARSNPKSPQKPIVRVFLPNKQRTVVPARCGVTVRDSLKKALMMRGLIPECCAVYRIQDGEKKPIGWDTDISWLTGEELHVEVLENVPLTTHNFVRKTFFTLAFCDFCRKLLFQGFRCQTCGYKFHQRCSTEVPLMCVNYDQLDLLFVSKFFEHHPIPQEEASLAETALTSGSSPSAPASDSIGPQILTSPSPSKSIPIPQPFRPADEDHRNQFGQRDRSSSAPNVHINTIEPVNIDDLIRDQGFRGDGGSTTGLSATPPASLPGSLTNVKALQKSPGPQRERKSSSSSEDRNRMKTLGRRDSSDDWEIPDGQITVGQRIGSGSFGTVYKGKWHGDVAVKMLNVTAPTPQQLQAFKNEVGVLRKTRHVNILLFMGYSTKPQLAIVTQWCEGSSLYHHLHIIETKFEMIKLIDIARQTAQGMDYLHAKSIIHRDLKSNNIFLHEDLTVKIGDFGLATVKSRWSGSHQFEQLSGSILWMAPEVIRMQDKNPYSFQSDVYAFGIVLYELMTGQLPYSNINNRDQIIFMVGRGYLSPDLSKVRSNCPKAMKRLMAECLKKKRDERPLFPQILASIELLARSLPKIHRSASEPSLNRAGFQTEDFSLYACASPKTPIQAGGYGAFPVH
pIC50: −log10 of the molar value.

{"Molecule": "Cc1ccc(NC(=O)Nc2cccc(NS(=O)(=O)c3c[nH]c(=O)[nH]c3=O)c2)cc1 [Compound L15i]", "pIC50": 5.14}
{"Molecule": "Cc1ccc(NC(=O)Nc2ccc(NS(=O)(=O)c3c[nH]c(=O)[nH]c3=O)cc2)cc1 [Compound L13i]", "pIC50": 5.31}
{"Molecule": "O=C(Nc1ccc(Cl)cc1)Nc1cccc(NS(=O)(=O)c2c[nH]c(=O)[nH]c2=O)c1 [Compound L15f]", "pIC50": 5.57}
{"Molecule": "Cc1cccc(NC(=O)Nc2cccc(NS(=O)(=O)c3c[nH]c(=O)[nH]c3=O)c2)c1 [Compound L15h]", "pIC50": 5.20}

----------
System: SGC7901 cells
Experiment: MTT assay SGC7901
Type: cell-based
Conditions: Homo sapiens, SGC-7901, 24h of treatment, mean ± SD
pIC50: −log10 of the molar value.

{"Compound": "Cc1cccc(NC(=O)Nc2ccccc2NS(=O)(=O)c2c[nH]c(=O)[nH]c2=O)c1 [Compound L14h]", "pIC50": 5.48}
{"Compound": "Cc1ccc(NC(=O)Nc2ccc(NS(=O)(=O)c3c[nH]c(=O)[nH]c3=O)cc2)cc1 [Compound L13i]", "pIC50": 5.31}
{"Compound": "O=C(Nc1cccc(NS(=O)(=O)c2c[nH]c(=O)[nH]c2=O)c1)Nc1ccccc1Cl [Compound L15d]", "pIC50": 5.28}
{"Compound": "O=C(Nc1cccc(Cl)c1)Nc1cccc(NS(=O)(=O)c2c[nH]c(=O)[nH]c2=O)c1 [Compound L15e]", "pIC50": 5.59}
{"Compound": "O=C(NNC(=O)c1ccccc1NS(=O)(=O)c1c[nH]c(=O)[nH]c1=O)c1cccc(Cl)c1 [Compound 10l, reference compound]", "pIC50": 5.74}
{"Compound": "Cc1ccccc1NC(=O)Nc1ccc(NS(=O)(=O)c2c[nH]c(=O)[nH]c2=O)cc1 [Compound L13g]", "pIC50": 5.19}
{"Compound": "O=C(Nc1ccc(NS(=O)(=O)c2c[nH]c(=O)[nH]c2=O)cc1)Nc1cccc(Cl)c1 [Compound L13e]", "pIC50": 5.47}
{"Compound": "O=C(Nc1ccc(Cl)cc1)Nc1ccccc1NS(=O)(=O)c1c[nH]c(=O)[nH]c1=O [Compound L14f]", "pIC50": 5.40}
{"Compound": "Cc1ccc(NC(=O)Nc2ccccc2NS(=O)(=O)c2c[nH]c(=O)[nH]c2=O)cc1 [Compound L14i]", "pIC50": 5.29}
{"Compound": "Cc1cccc(NC(=O)Nc2cccc(NS(=O)(=O)c3c[nH]c(=O)[nH]c3=O)c2)c1 [Compound L15h]", "pIC50": 5.32}
{"Compound": "O=C(Nc1cccc(Cl)c1)Nc1ccccc1NS(=O)(=O)c1c[nH]c(=O)[nH]c1=O [Compound L14e]", "pIC50": 5.71}
{"Compound": "Cc1cccc(NC(=O)Nc2ccc(NS(=O)(=O)c3c[nH]c(=O)[nH]c3=O)cc2)c1 [Compound L13h]", "pIC50": 5.20}
{"Compound": "O=C(Nc1ccc(Cl)cc1)Nc1cccc(NS(=O)(=O)c2c[nH]c(=O)[nH]c2=O)c1 [Compound L15f]", "pIC50": 5.37}
{"Compound": "Cc1ccc(NC(=O)Nc2cccc(NS(=O)(=O)c3c[nH]c(=O)[nH]c3=O)c2)cc1 [Compound L15i]", "pIC50": 5.16}
{"Compound": "Cc1ccccc1NC(=O)Nc1cccc(NS(=O)(=O)c2c[nH]c(=O)[nH]c2=O)c1 [Compound L15g]", "pIC50": 5.15}

----------
Target: EGFR kinase (Homo sapiens, UniProt P00533)
Sequence (P00533 25-1210): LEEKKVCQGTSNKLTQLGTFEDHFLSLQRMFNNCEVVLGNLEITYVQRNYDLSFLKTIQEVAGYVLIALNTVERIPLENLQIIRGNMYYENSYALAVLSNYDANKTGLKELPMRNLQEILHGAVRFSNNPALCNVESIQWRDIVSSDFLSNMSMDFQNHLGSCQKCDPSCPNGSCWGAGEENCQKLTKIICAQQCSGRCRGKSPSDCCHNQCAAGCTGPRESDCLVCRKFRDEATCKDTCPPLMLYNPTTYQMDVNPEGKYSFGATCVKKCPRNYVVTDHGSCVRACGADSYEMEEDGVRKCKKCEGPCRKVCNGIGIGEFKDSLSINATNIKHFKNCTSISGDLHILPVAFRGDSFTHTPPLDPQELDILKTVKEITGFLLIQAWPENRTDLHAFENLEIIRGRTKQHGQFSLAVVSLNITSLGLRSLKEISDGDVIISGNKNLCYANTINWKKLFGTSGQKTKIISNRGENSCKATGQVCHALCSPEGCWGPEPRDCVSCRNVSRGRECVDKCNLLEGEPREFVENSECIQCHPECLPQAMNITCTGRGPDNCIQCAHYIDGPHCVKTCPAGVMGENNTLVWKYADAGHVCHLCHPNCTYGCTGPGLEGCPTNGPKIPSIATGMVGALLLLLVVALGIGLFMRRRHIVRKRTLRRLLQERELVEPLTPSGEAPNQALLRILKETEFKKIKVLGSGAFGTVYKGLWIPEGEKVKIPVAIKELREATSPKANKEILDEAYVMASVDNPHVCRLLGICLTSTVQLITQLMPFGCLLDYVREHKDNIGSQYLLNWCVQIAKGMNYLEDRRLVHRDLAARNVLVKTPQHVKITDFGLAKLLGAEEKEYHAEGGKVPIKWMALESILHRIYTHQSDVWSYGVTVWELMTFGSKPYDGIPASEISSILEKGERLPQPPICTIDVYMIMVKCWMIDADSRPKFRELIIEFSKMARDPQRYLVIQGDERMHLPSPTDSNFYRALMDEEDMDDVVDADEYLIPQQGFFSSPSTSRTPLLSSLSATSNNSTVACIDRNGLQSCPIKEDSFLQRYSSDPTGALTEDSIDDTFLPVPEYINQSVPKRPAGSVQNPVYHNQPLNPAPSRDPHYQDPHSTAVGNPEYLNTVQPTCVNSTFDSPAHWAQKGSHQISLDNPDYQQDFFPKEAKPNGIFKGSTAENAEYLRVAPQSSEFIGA
pIC50: −log10 of the molar value.
Quantity: pIC50

{"Molecule": "Cc1cccc(NC(=O)Nc2ccc(NS(=O)(=O)c3c[nH]c(=O)[nH]c3=O)cc2)c1 [Compound L13h]", "Measured result": 5.40}
{"Molecule": "O=C(Nc1ccc(Cl)cc1)Nc1ccc(NS(=O)(=O)c2c[nH]c(=O)[nH]c2=O)cc1 [Compound L13f]", "Measured result": 5.33}
{"Molecule": "O=C(Nc1cccc(Cl)c1)Nc1ccccc1NS(=O)(=O)c1c[nH]c(=O)[nH]c1=O [Compound L14e]", "Measured result": 5.72}
{"Molecule": "Cc1cccc(NC(=O)Nc2ccccc2NS(=O)(=O)c2c[nH]c(=O)[nH]c2=O)c1 [Compound L14h]", "Measured result": 5.37}
{"Molecule": "O=C(Nc1cccc(Cl)c1)Nc1cccc(NS(=O)(=O)c2c[nH]c(=O)[nH]c2=O)c1 [Compound L15e]", "Measured result": 5.36}
{"Molecule": "O=C(Nc1ccc(Cl)cc1)Nc1cccc(NS(=O)(=O)c2c[nH]c(=O)[nH]c2=O)c1 [Compound L15f]", "Measured result": 5.26}
{"Molecule": "O=C(Nc1ccc(Cl)cc1)Nc1ccccc1NS(=O)(=O)c1c[nH]c(=O)[nH]c1=O [Compound L14f]", "Measured result": 5.65}
{"Molecule": "Cc1ccc(NC(=O)Nc2cccc(NS(=O)(=O)c3c[nH]c(=O)[nH]c3=O)c2)cc1 [Compound L15i]", "Measured result": 5.06}

Recorded values, source paper PMC6624297.
